- tested system: Cannabinoid receptor 1 (Homo sapiens)
- Sequence (P21554 whole entry): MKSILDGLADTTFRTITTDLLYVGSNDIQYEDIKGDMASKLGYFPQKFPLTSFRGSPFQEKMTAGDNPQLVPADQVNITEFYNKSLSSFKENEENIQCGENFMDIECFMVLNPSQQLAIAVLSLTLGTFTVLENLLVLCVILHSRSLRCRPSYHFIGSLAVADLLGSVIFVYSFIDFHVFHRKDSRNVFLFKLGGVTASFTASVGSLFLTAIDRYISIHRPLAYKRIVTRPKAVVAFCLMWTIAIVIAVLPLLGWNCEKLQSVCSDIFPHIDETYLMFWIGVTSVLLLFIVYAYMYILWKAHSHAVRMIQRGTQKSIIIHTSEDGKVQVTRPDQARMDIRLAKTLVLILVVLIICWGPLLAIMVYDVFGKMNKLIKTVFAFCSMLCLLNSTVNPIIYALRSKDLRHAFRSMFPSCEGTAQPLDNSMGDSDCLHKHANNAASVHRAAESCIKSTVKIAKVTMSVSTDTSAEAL
- assay overview: Positive allosteric modulation of human CB1 receptor expressed in CHO-K1 cells assessed as inhibition of forskolin-induced cAMP production by measuring maximum efficacy incubated for 30 mins in presence of forskolin by HitHunter chemiluminescence based assay relative to control
- Assay type: functional, cell-based
- applied conditions: filed as positive allosteric modulator
experimental endpoint: Emax

Use these answered entries as a reference point.
INSERT INTO assay_data (molecule, tested_system, assay_result) VALUES
  ('O=[N+]([O-])CC(c1ccccc1)c1c(-c2ccco2)[nH]c2ccccc12 (stereo not given)', 'Cannabinoid receptor 1 (Homo sapiens)', '140%'),
  ('O=[N+]([O-])CC(c1ccccc1)c1c(-c2cccs2)[nH]c2ccccc12 (stereo not given)', 'Cannabinoid receptor 1 (Homo sapiens)', '85%'),
  ('O=[N+]([O-])CC(c1ccccc1)c1c(-c2cc3ccccc3[nH]2)[nH]c2ccccc12 (stereo not given)', 'Cannabinoid receptor 1 (Homo sapiens)', '110%'),
  ('O=[N+]([O-])CC(c1ccccc1)c1c(-c2cc3ccccc3o2)[nH]c2ccccc12 (stereo not given)', 'Cannabinoid receptor 1 (Homo sapiens)', '96%');

Turning to the following molecule.
Fill in the blank: the reported Emax of O=[N+]([O-])CC(c1ccccc1)c1c(-c2cc[nH]c2)[nH]c2ccccc12 (stereo not given) is ____.
52%

src = ChEMBL document CHEMBL5053527
